tgt: human LTA4 hydrolase (Homo sapiens, UniProt P09960)
Sequence (P09960 1-611): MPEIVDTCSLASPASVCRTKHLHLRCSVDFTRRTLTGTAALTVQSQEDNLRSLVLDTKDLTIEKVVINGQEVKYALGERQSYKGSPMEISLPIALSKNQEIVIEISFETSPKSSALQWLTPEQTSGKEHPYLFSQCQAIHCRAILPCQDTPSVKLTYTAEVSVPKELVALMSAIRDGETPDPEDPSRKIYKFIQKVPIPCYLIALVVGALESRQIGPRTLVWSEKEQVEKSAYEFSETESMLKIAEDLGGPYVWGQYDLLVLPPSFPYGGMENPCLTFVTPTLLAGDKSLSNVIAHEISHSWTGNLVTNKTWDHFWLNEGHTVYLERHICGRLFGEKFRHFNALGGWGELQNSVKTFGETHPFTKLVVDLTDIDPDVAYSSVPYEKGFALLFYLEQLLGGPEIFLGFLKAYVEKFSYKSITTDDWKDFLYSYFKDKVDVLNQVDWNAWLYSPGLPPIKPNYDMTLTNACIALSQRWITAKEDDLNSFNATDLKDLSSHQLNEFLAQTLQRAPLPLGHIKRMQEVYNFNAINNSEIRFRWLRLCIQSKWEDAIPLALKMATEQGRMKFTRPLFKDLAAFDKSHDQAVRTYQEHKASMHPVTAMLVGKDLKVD
test-method-notes: LTA4H Enzyme assay (cleavage of Arg-AMC, fluorescence)
Format: biochemical
recorded-conditions: LTA4H Enzyme 1 nM, Arg-AMC substrate 50 μM, room temperature 1 h, fluorescence; read-out: IC50 values of LTA4H Enzyme assay
pIC50: −log10 of the molar value.
Answer f if pIC50 is under 9, and t if it is 9 or more.

CN1CCCN(Cc2ccc([C@H]3COc4cccnc4O3)cc2)CC1
t
c1ccc2c(c1)OCC(c1ccc(CNC3CCCC3)cc1)O2 (racemic)
f
O=C1CCCN1CC1CCCN(Cc2ccc([C@H]3COc4cccnc4O3)cc2)C1 (stereo partly drawn)
t
O=C1OC[C@@H]2CN(Cc3ccc([C@H]4COc5cccnc5O4)cc3)CCN12
t
NCc1ccc(C2COc3cccnc3O2)cc1 (stereo not drawn)
f

Has OCCCC1CCN(Cc2ccc(C3COc4ccccc4O3)cc2)CC1 (racemic) a recorded pIC50 greater than or equal to 9? f

Has `O=S1(=O)CCN(Cc2ccc([C@H]3COc4cccnc4O3)cc2)CC1` a recorded pIC50 greater than or equal to 9? t

Has `O=C(O)[C@H]1[C@@H]2CN(Cc3ccc([C@H]4COc5ccccc5O4)cc3)C[C@@H]21` a recorded pIC50 greater than or equal to 9? t

Has `O=C(NC1CCN(Cc2ccc([C@H]3COc4cccnc4O3)cc2)CC1)C1CCOCC1` a recorded pIC50 greater than or equal to 9? t

Has `O=C(O)C1(NCc2ccc([C@H]3COc4ccccc4O3)cc2)CCCC1` a recorded pIC50 greater than or equal to 9? f

Has `C[C@@H](CO)NC(=O)[C@H]1[C@@H]2CN(Cc3ccc([C@H]4COc5cccnc5O4)cc3)C[C@@H]21` a recorded pIC50 greater than or equal to 9? t

Has `c1cnc2c(c1)OC[C@H](c1ccc(CN3CCCC3)cc1)O2` a recorded pIC50 greater than or equal to 9? t

Has c1cnc2c(c1)OCC(c1ccc(CN3CCCC3)cc1)O2 (racemic) a recorded pIC50 greater than or equal to 9? t

Has `O=C(CO)N1C[C@@H]2C[C@H]1CN2Cc1ccc([C@H]2COc3cccnc3O2)cc1` a recorded pIC50 greater than or equal to 9? t

Has OC1CCN(Cc2ccc([C@@H]3COc4ccccc4O3)cc2)CC1 (single isomer, unassigned) a recorded pIC50 greater than or equal to 9? f
